- Experiment Summary: yeast display, Sf9 membrane polyspecificity reagent, FACS + sequencing; frameworks hold sequencing errors
Observed Property: polyreactivity (PSR sort gate)

{"Sequence Entry": "QVQLVESGGGLVQAGGSLRLSCAASGRTFSSNAMGWYRQDPGKERELVASISFRGGRTYYADSVKGRFTISRDNAKNTVYLQMNSLKPEVTAVYYCVSGTKRTGYGYWGQGTQVTVSS", "polyreactivity (PSR sort gate)": "high polyreactivity"}
{"Sequence Entry": "QLLLQESGRGLVQAGVSLRLSCAASGSIFLVYTIGCYRKAPLKEREFVAGIPLGTTTYNADSVKGRFTISRDNVKNTVYLQINSLKPEDTSVYYCAVAVGHYTDIWDWGQGTQVTMSS", "polyreactivity (PSR sort gate)": "high polyreactivity"}
{"Sequence Entry": "QVQLVESGGGLVQAGGSLRLSSAASGSTFYQYAMGWYRQAPGKERELVAAISWDSGSTYYADSVKGRFTISRDNAKNTVYLQMNSLKPEDTAVYYCAASWYGYYDGYAVEYDYWGQGTQVTVSS", "polyreactivity (PSR sort gate)": "low polyreactivity"}
{"Sequence Entry": "QVQLLESGGGLVQAGGSLRLSCAASGNIFMDYAMGWYRHAPGKERELVAAITSRVDDTYYADSVKGRFTISRDNAKNTVYLQMNSLKPEDTAVYYCAADYSVTLRIGGYYWFYAFDYWGQGTQVTVSS", "polyreactivity (PSR sort gate)": "low polyreactivity"}
{"Sequence Entry": "QVQLVESGGGLVQAGGSLRLSCAAPGSIFGTNAMGWYRQAPGKERELVAAINWSGGTTYYADSVKGRFTISRDNAKNTVYLQMNSLKPEDTAVYYCATVFFVLPPTRFDSWGQGTQVTVSS", "polyreactivity (PSR sort gate)": "low polyreactivity"}
{"Sequence Entry": "QDQLVESGGGLVQAGVSLRLICAASGRTFYLYAIGWYRQAPGKERELVAAITWGGATTYYADSVKGRFTISRDNAKNTVYLQMNSLKPEVTAVYYCAAGGYTVWHYQYYAMDYCGQGTQVTVSS", "polyreactivity (PSR sort gate)": "low polyreactivity"}

Request: Return value of polyreactivity (PSR sort gate) for input `QVQLVESGGGLVQAGGSLRLSCAASGSTFSRNAMGWYRQAPGKERELVAAITLRGTNTYYADSVKGRFTISRDNAKNTVYLQMNSLKPEDTAVYYCAALRRGSGRYDMDYWGQGTQVTVSS` , no commentary.
Result: high polyreactivity

Request: Tell us which polyreactivity (PSR sort gate) value is on record for `QVQLVESGGGLVQAGGSLRLSCAASGRIFSGNAMGWYRQAPGKERELVAAISRGGSTDYADSVKGRFTISRDNAMNTVYLQMNSLKPEDTAVYYCAARVNGKRRRYDYWGQGTQVTVSS`
Result: high polyreactivity

Request: Consider the sequence `QVQLVESGGGLVQAGGSLRLSCAASGSIFVLYAMGWYRQAPGKERELVAAITASGGSTHYADSVKGRFTISRDNAKNTVYLQMNSLKPEDTAVYYCNADVYTEYDYWGQGTQVTVSS` . State its measured polyreactivity (PSR sort gate).
Result: low polyreactivity

Request: Identify measured polyreactivity (PSR sort gate) corresponding to `QVQLVESGGGLVQAGGSLRLSCPASGLTFWLYALGWYRQAPGKERELVAAITRSGGSTSYADSVKGRFTISRDNAKNTVYLQMNSLKPEDTAVYYCNADSPGYTAVRLVEFDYWGQGTQVTVSS`
Result: low polyreactivity

* * *

- Experiment Summary: yeast display, Sf9 membrane polyspecificity reagent, FACS + sequencing; frameworks hold sequencing errors
Observed Property: polyreactivity (PSR sort gate)

{"Sequence Entry": "QVQLVESGGGLVQAGGSLRISCAASGFTFFSNAMGWYRKAPGKERELVAAITSSGGSTYADTVKGRFTISRDNAKNTVYLQMNRLKPEDTAVYYCAADAQAPPGGFKEYDYWGQGTQVTVSS", "Observed Property": "polyreactivity (PSR sort gate)", "Recorded Result": "low polyreactivity"}
{"Sequence Entry": "QVQLVESGGGLVQAGGSLRLSCAASGITFRYYAMGWYRQAPGKERELVAAISSGSSTYYADSVKGRFTISRDNAKNTVYLQMNSLKPEDTAVYYCAARTYTTSRATTVYKRLNYWGQGTQVTVSS", "Observed Property": "polyreactivity (PSR sort gate)", "Recorded Result": "high polyreactivity"}
{"Sequence Entry": "QVQLQESGGGLVQAGGSLSLRCSASRNITRSSDLGWYHQAPGKEREFVASITSGGTTYYADSVKGRFTISRDNAKNTVYLEMNSLKPEDTAVYYCAVGDQADAEFGYWGQGTQVTVSS", "Observed Property": "polyreactivity (PSR sort gate)", "Recorded Result": "low polyreactivity"}
{"Sequence Entry": "QVQLEESGGGLVQAGGSLRLSCAPSGYNYRKNVIGWYRQAPGKERELVAAISARGGSTYYADSVKGRFTISRDNAKNTVYLQMYSLKAEVTAVYFCNTDGYLYPYDSWGLGTQVTVSS", "Observed Property": "polyreactivity (PSR sort gate)", "Recorded Result": "high polyreactivity"}

Request: In one line, give reported polyreactivity (PSR sort gate) of the entry `QVQLVESGGGLVQAGGRLRLSCAASGGIFDTYVMGRYRQAPGKERELVAGISSTGGSTYYADSVKGRFTISRDNAKNTVYLQMNSLKPEDTAVYYCNAEAGGFDYYGKTYRYGDYWGQGTQVTVSS` .
Result: low polyreactivity

Request: Indicate its recorded polyreactivity (PSR sort gate); the sequence in question is `QVQLVESGGGLVQAGCSLRLSCAASGSIFTSYAMGWYRQAPGKERELVAAINRSSGTTYYAHSVKGRFTISRDTAKNTVYLQMNSLKREDTAVYYCAKEYGIYTDTPYYYWGQGTQVTVSS`
Result: low polyreactivity

Request: Check the records and state polyreactivity (PSR sort gate) for `QVQLVESGGGLVQAGGSLRLSCAASGFIYGANAMGWYRQAPGKERALVAAISWNGGRTYYADSVKGRFTISRDNAKKTVYLQMNSLKPEDTAVYYCNARSWYSFQPQDYWGQGTQVTVSW`
Result: high polyreactivity

Request: Look up and report measured polyreactivity (PSR sort gate) for this entry: `QVQLVESGGGLVQAGGSHRLSCAASGRTFYYNAMGVYRQAPGKERELVAGITRSGSSTYYADSVKGRFTISRVNAKNTVYLQMNSLKPEDTAVYYCATRRSGYYSFYYWGQGTQVTVSS`
Result: high polyreactivity

Request: // Input: `QVQLVESGGGLVQAGGSLRLSCAASGSTFTRNAMGWYRQAPGKERELVAVISSRGGRTYYADSVKGRFTISRDNAKNTVYLQMNSLKPEDTAVYYCAARTWVLYTWRSYYEYYYWGQGTQVTVSS` . Output its polyreactivity (PSR sort gate) only.
Result: high polyreactivity

Request: Read the entry `QHQLVDSGVCLVQAGRSLRLSCDASGYTFYIYAMGWYTQAPRKERELVATISSSGGGTYYADSVKGRFTISRDNAKNTVYLQMNSLNPEDTAVYYCNADGWYWQAQGYDYWGQGTQVTVSS` and write its reported polyreactivity (PSR sort gate).
Result: low polyreactivity

Request: Please supply the value of reported polyreactivity (PSR sort gate) for the item `QVQLVESGGGLVQAGCSLRLSCAASGRTFRYYAMGWYRQAPGKERELVAAISGRGGSTYYADSVKGRFTISRDNAKNTVYFQMNSLKPEDTAVYYCADSFYSIRYDYWGQGTQVTVSS`
Result: high polyreactivity

Request: Return value of polyreactivity (PSR sort gate) for input `QVHLVESGGGLVQAGGSLRLRCAASGSIFLLYAMGWYRQPPGKGRELVAAITYSGGRTYADSVKGRFTISRDNAKNTGYLQMISLKPEDTAVNYCATDAPAPKYDYWGQGTQVTVSS` , no commentary.
Result: low polyreactivity

Request: Provide measured polyreactivity (PSR sort gate) value, entry: `QVQLVESGGGLVPAGGSLRLSCAASGSTFIPNTMGWYRQAPGKERELVAAISRRGGSTNYADSVKGRFTISRDNAKNTVYLQMNSLKPEDTAVYYCAAVSPRRYRYDYWGQGTQVTVSS`
Result: low polyreactivity

* * *

- Experiment Summary: yeast display, Sf9 membrane polyspecificity reagent, FACS + sequencing; frameworks hold sequencing errors
Observed Property: polyreactivity (PSR sort gate)

# count of solved cases: 10
{"Sequence Entry": "QVQLVESGGGLVQAGGSLRLSCAASGRTFPPYGMGWYRQAPGKERELVAAISKSSGSTNYADSVKGRFTISRDNAKNTVYLQMNSLKPEDTAVYYCNVDLYRWSKLAGAYRMDYWGQGTQVTVSS", "polyreactivity (PSR sort gate)": "low polyreactivity"}
{"Sequence Entry": "QVQLVESGGGLVQAGGSLRLSCAASGNTFYGYAMGWYRQAPGKERDLVATITGSGGDTYYADSVKGRFTISRDNAKNTVYLKMNSLKPEDTAVYYCNAVEYYGGYPGTQYYYLAYNYWGQGTQVTVSS", "polyreactivity (PSR sort gate)": "low polyreactivity"}
{"Sequence Entry": "QVQLVESGGGLVQAGGSLRLSCAASGFIFQSYAMGWYRQAPGKERELVAAITRSGGRTYYADSVKGRFTISRDNAKNTVYLQMNSLKPEDTAVYYCAAETSYPGIYRFYYWGQGTQVTVSS", "polyreactivity (PSR sort gate)": "high polyreactivity"}
{"Sequence Entry": "QVQLVESGGGLVQAGGSLRLSCAASGSTFWIYAMGWYRQAPGKERELVAAITLRSGSTYYADSVKGRFTISRDNAKNTVYLQMYSLKPEDTAVYYCATDSWGVDRPNYNYWGQGTQVTVSS", "polyreactivity (PSR sort gate)": "low polyreactivity"}
{"Sequence Entry": "QVQLVESGGGLVQAGGSLRLSCAASGRIFTGYAMGWYRQAPGKERELVAAISRGGSTNYADSVKGRFTISRDNAKNTVFLQMNSLKPEDTAVYYCAAGVHWDRGDYWGQGTQVTVSS", "polyreactivity (PSR sort gate)": "low polyreactivity"}
{"Sequence Entry": "KVQLVESGGGLVQAGGSLRISCAASGSNFGRYAMGWYRQAPGKERELVAAISARGGSTYYADSVKGRFTISRDNAKNTVYLQMNSLKPEDTAFYYCNVLVRYSDQSSDSWGQGTQVTVSS", "polyreactivity (PSR sort gate)": "high polyreactivity"}
{"Sequence Entry": "QVQLVESGGGLVQAGGSLRLSCAASGSIFLSYDMGWYRQAPGKERELVAAITQSGGSTYYADSVKGRFTISRDNAKNTVYLQMNSLKPEDTAVYYCAADYGYFPQETYPTYGYYYWGQGTQVTVSS", "polyreactivity (PSR sort gate)": "low polyreactivity"}
{"Sequence Entry": "QVQLVESGGGLVQAGGSLRLSCAASGFIFPQYAMGWYRQAPGKERELVAAISTGGGSTYYADSVKGRFTISRDNAKNTVYLQMNSLKPEDTAVYYCAKYVYRFARYNLDYWGQGTQVTVSS", "polyreactivity (PSR sort gate)": "high polyreactivity"}
{"Sequence Entry": "QVQLVESGGGLVQAGGSLRLSCAASGFTFRYYAMGWYRQAPGQERELVAAITRGAGSTYYADSVKGRFTISRDNAKNTDYFQMNSLKPEDTAVYYCAAEFFQYYVATPFDPSNYWGQGTQVTVSS", "polyreactivity (PSR sort gate)": "low polyreactivity"}
{"Sequence Entry": "QVQLVESGGGLVQAGGSLRLSCAASGFTFDTNAMGWYRQAPGKERELVAAISWGGDTTYYADSVKGRFTISRDNAKNTVYLQMNSLKPEDTAVYYCNVYWYDWWGYDYWGQGTQVTVSS", "polyreactivity (PSR sort gate)": "high polyreactivity"}

Request: Please indicate polyreactivity (PSR sort gate) recorded for `QVQLVESGGGLVQAGGSLRLSCAASGSTFNWNAMRWYRQPPGKERELVAAITSSGARTRYADSVKGRFTISRDNAKNTVYLQMNSLKPEDTAVYYCAAYVYISPSGYYYWGLGTQVTVSS`
Result: low polyreactivity

Request: Specify measured polyreactivity (PSR sort gate) for `QVQLVESGGGLVQAGGSLRLSCAASGFTFDYNAMGWYRQAPGKEREFDAAISTGGSTKYADSVKGRFTISRDNAKNTVYLQMNSLKPEDTAVYYCNKQTTDRGFYDWKWSGFDYWGQGTQVTVSS` .
Result: low polyreactivity

Request: Find the measured polyreactivity (PSR sort gate) of `QVQLVESGGGLVQAGGSLRLSCAASGFTFSAYAMGWSRQAPGKERELVAAITLRGGSTYYADSVKGRFTISRDNAKNTVYLQMNSLKPEDTAVYYCAADRIYVAYDYWGQGTQVTVSS` and report it.
Result: low polyreactivity

Request: Query polyreactivity (PSR sort gate) for `QVQLVESAGGLVQAGGSLRIRCAASVSTFGVYALGWYRQAPGKERELVAAISSSTGSTYYADSVKGRFTISRDNAKNTVYLQMNSLKPEDTGVYYCAAAGYGKVRGDYWGLGTQVTVSS`
Result: low polyreactivity
